- Tested on: HCT-116 colon
- assay.comment: NCI tumour cell line growth inhibition, 48 h
I'd appreciate it if you could supply TGI values for the items below.

1. Oc1ccc(CN(Cc2ccc(C(F)(F)F)cc2)Cc2ccc(O)c3ncccc23)c2cccnc12 ... > 100 µM

Hello, I would appreciate it if you could give TGI for each entry below.
1. OCC(O)C(O)C(O)C(/C=N\Nc1ncnc2ccc(Br)cc12)=N/Nc1ncnc2ccc(Br)cc12 (configuration not stated)
2. C/C=C\C(CC(=O)NCCC1CN(C(=O)c2ccccc2)c2ccccc21)CC(=O)OC (configuration not stated)
3. Oc1cc(Cl)ccc1Cc1ccc(Cl)cc1O
4. COc1ccc2c(c1)[C@@]1(C)CCC3c4ccc(O)cc4CCC3C1C2 (some centres not stated)
5. CO/C(=N\N=C\c1cccc(C(F)(F)F)c1)c1ccncc1
6. CC[C@@]1(O)C(=O)OCc2c1cc1n(c2=O)Cc2cc3c(NC(=O)CN)cccc3nc2-1
7. COc1cc2c(cc1Cl)n([O-])c(C#N)c(N1CCN(c3ccc([N+](=O)[O-])cc3)CC1)[n+]2=O

1: > 100 µM; 2: > 100 µM; 3: 17.1 µM; 4: 27.5 µM; 5: > 100 µM; 6: > 56.1 µM; 7: > 100 µM

---

- Tested on: RPMI-8226 leukemia
- assay.comment: NCI tumour cell line growth inhibition, 48 h; in the data active = GI50 below about 0.43 µM; inactive = the rest
Permitted responses: y = active, n = inactive

1. COc1ccc2[nH]cc(-c3nc(-c4c[nH]c5ccncc45)cs3)c2c1 ... n

Hi, sorry to bother you, what did the test record for `COc1ccc(C2=C(c3cc(OC)c(OC)c(OC)c3)C(=O)OC2)cc1OC` ?
y

Outcome? `COc1ccc(-c2cc(-c3nnc(SCC(=O)Nc4ccc(C(C)=O)cc4)o3)c3ccccc3n2)cc1`
n

---

- System: UO-31 renal
- assay.comment: NCI tumour cell line growth inhibition, 48 h
readout.kind: GI50

Please review the entries below; each comes with its answer.
1. COc1cc2c3c(n(C)c(=O)c2cc1OC)-c1cc2c(cc1/C3=C/[C@H](N)CCCCN)OCO2 ... 3.14 µM
2. COC(=O)[C@@H]1CCCN1C(=O)[C@H]1CCCN1C(=O)[C@@H](Cc1c[nH]c2ccccc12)NC(=S)Nc1cc(C(F)(F)F)cc(C(F)(F)F)c1 ... 3.23 µM
3. COc1ccc(-c2nc3sc4c(c3c(=O)[nH]2)CCCC4)c2ccccc12 ... 0.59 µM

# batch size: 3; output GI50 per entry
1. O=C1CC/C(=C\COc2ccc3ccc(=O)oc3c2)O1
2. Cc1ccc(C[P+](c2ccccc2)(c2ccccc2)c2ccccc2)cc1
3. Cc1cc(NC(=O)NC(=O)c2ccccc2NC(=O)CN)ccc1Oc1ncc(Br)cn1

1. 6.41 µM
2. 6.08 µM
3. 2.1 µM

---

- System: UACC-257 melanoma
- assay.comment: NCI tumour cell line growth inhibition, 48 h
Consider the following compounds; for each one, report its TGI.

1. N#Cc1c(N2CCN(c3ccc([N+](=O)[O-])cc3)CC2)[n+](=O)c2ccc(Cl)cc2n1[O-] ... 8.21 µM
2. COC(=O)C1=Cc2c(cc(OC)c(OC)c2OC)[C@H](c2ccc(OC)c(OC)c2OC)C1C(=O)OC (some centres undefined) ... > 100 µM
3. COc1cc(C2S/C(=C/c3ccccc3)C(=O)N2c2cccc([N+](=O)[O-])c2)cc(OC)c1OC (centres undefined) ... > 100 µM

Pending compound:
Just so you know, measured TGI for `CN(C)S(=O)(=O)c1ccc(Nc2ccc(O)c3c2C(=O)c2c([N+](=O)[O-])ccc(O)c2C3=O)cc1` came out at > 100 µM
